- method_summary: Leishmania major promastigote growth inhibition, primary screen (AID 1063);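 note: promastigotes grown with compound for 44 hours at 28 °C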
- condition_details: Leishmania major promastigotes, resazurin fluorescence viability; at 10 µM; stronger effect = higher value
Screen size: about 200,000 compounds; about 18,000 (9%) were called active. For the sample, actives were picked, then their nearest neighbours and some compounds at random.
Label Met when inhibition < 20%; otherwise Not met.

* Cc1ccc(-n2c(C)cc(/C=C3\C(=O)NC(=O)N(C)C3=O)c2C)cc1C | Not met
* Cc1ccc(-c2nc3ccccc3c(=O)n2-c2ccc(Br)cn2)cc1 | Met
* Cc1cccc2c(CCN)c[nH]c12 | Met
* CNP1(NC)=Nc2nn(-c3ccccc3)c(N)c2C(c2ccccc2)=N1 | Met
* O=C(NCC(c1cccnc1)N1CCN(c2ccccc2)CC1)Oc1ccccc1 (configuration not stated) | Not met
* N=c1ccccn1Cc1ccccc1 | Met
* O=C1/C(=C\c2ccc3c(c2)OCO3)N2CCC1CC2 | Met
* C=CCN(CC=C)C(=O)Nc1ccc(OCC)cc1 | Met
* CN1CCN(C(=O)COc2ccc(C(C)(C)C)cc2Br)CC1 | Not met
* CN(C)c1nc(N(C)C)nc(N(C#N)CCCl)n1 | Met
* CCCOC(=O)C1C2c3ccccc3C(c3ccccc32)C1C(=O)O (configuration not stated) | Met
* Cc1cc(C=C2C(=O)NC(=O)NC2=O)c(C)n1-c1ccncc1 | Met
* CC(C)c1ccc(OCC(=O)N2CCN(C)CC2)c(Br)c1 | Not met
* Cc1ccc(-c2nn(CCC#N)cc2C(=O)O)cc1C | Met
* O=C(C1CC(=O)N(C2CCCC2)C1)N1CCC2(CC1)OCCO2 (configuration not stated) | Met
* Cc1cccc(-n2c(O)c(C=NC34CN5CN(CN(C5)C3)C4)c(=O)[nH]c2=O)c1 | Met
* CN(C)P(=S)(Nc1ccccc1)C(Cl)(Cl)Cl (configuration not stated) | Not met
* COc1ccccc1N1CCN(C(CNC(=O)Oc2ccccc2)c2cccnc2)CC1 (configuration not stated) | Not met
* COP(=O)(OC)C(NC(=O)c1ccc(C)cc1)C(Cl)(Cl)Cl (configuration not stated) | Met
* COc1ccc(NC(=O)c2cn(CCC#N)nc2-c2ccc([N+](=O)[O-])cc2)cc1 | Met
* CC(C)Nc1nc(Cl)nc(NC(C)C)n1 | Not met
* COc1ccccc1N=Nc1c(O)[nH]c(=S)[nH]c1=O | Met
* CN1C2C=C(N(C(=O)c3ccc(Cl)cc3)c3ccccc3)CC1CC2 (configuration not stated) | Met
* COc1ccccc1N=C1SCCCN1C | Met
* CC(C)CN1CCN(Cc2ccccc2C(F)(F)F)CC1CCO (configuration not stated) | Met
* C[N+]12CN3CN(CN(C3)C1)C2 | Not met
* COc1ccc(C2N3CC(C)(C)CN23)cc1 (configuration not stated) | Met
* CCOC(=O)C1(Cc2ccc(Cl)cc2)CCN(C(C)CCn2cccn2)CC1 (configuration not stated) | Not met
* CN1CCN(Cc2ccccc2C(F)(F)F)CC1 | Met
* Cc1cc(C)cc(NC(=S)NC2CC3CCCC(C2)N3Cc2cccs2)c1 (configuration not stated) | Not met
* CC1=CC(=Cc2sc3ccccc3[n+]2C)C=C(C)O1 | Not met
* O=C(NC(c1ccc(Cl)cc1)P(=O)(Oc1ccccc1)Oc1ccccc1)OCc1ccccc1 (configuration not stated) | Met
* CN(C)c1ccc(/C=C2\CC3C4CC=C5CC(O)CCC5(C)C4CCC3(C)C2=O)cc1 (configuration not stated) | Not met
* Cc1ccnc(-n2c(C)cc(/C=C3\C(=O)NC(=S)N(C)C3=O)c2C)c1 | Not met
* CN1CCC(N(C)Cc2cccnc2)CC1 | Met
* CC(C)(C)c1ccc(OC(=O)N2CCCCC2)cc1 | Met
